Target: T1, recombinant human ADAMTS5 (R&D Systems cat #2198-AD) (human, UniProt Q9UNA0 262-622, limits assumed)
T1 sequence: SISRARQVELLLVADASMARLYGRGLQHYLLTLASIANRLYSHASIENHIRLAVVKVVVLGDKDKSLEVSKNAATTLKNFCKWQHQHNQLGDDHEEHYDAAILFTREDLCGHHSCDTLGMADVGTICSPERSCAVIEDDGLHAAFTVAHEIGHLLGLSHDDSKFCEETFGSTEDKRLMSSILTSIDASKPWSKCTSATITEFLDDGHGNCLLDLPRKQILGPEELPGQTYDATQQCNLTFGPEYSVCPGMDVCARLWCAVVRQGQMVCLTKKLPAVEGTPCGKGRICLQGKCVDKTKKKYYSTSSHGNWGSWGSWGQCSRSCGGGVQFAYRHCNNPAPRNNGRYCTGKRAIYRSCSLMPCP
Experiment: cell-based or functional assay

binder	Human AlphaLISA IC50
Nanobody 3D01 (VHH, tagged as tested (anti-Flag detection, IMAC); also called 03D01) VHH: EVQLVESGGGLVQAGGSLRLSCAPSGFTFSPYYMGWFRQAPGKERDFVAAISRSRGTTYYLDSTEGRFTISRDNANDTVYLQMNSLNPEDTAVYYCAAGRSPGDPSRTYLYDYWGQGTLVTVSS	0.39 nM
Nanobody 11B06 (VHH, tagged as tested (anti-Flag detection, IMAC)) VHH: EVQLVESGGGLVQAGGSLRLSCAASGLTFRRNAMGWFRQAPGKERELLAGINWSGGTTYYVDSVKGRFTISRDNAKNTVDLQMISPKPEDTAVYYCAADGDIGTLVNDENPRYWGQGTLVTVSS	0.1 nM
Nanobody 2A02 (VHH, tagged as tested (anti-Flag detection, IMAC); also called 02A02) VHH: EVQLVESGGGLVQPGGSLRLSCAASRRTFSSYVMAWFRQAPGKEREFVAAISRSGDSTYYYDSLEGRFTISRDNAKNTVHLQMNSLKPEDTAVYICAASRAPSFRTIDAINYYDYWGQGTLVTVSS	4.3 nM
